- Test system: binding between Ras and Ras-binding domain (RBD) of Rafl
- test.details: Ras pulldown with inhibitor interference (Active Ras PullDown and Detection Kit, Western blot)
- condition.label: estimated from Table 2; read-out: inhibition IC50, Ras pulldown assay
pIC50: −log10 of the molar value.
parameter: pIC50

Return pIC50 (reported value) for this compound: C1=Cc2nc1c(-c1ccncc1)c1ccc([nH]1)c(-c1ccncc1)c1nc(c(-c3ccncc3)c3ccc([nH]3)c2-c2ccncc2)C=C1
4.30 to 5.00

====

- study.system: Ras-Raf binding
- test.details: Ras activation ELIZA kit assay (chemiluminescent)
- condition.label: estimated from Table 2; read-out: inhibition IC50, Ras activation ELIZA assay
parameter: IC50

Return IC50 (reported value) for this molecule: Cc1ccc(NC(=S)NNc2c([N+](=O)[O-])cc(C(F)(F)F)cc2[N+](=O)[O-])cc1Cl [Kobe0065, reference compound]
< 10 µM
